biological target: CCR2 (Homo sapiens, UniProt P41597); test: MCP-1 Receptor Binding Assay in THP-1 Cells; details: THP-1 cells, 0.5 nM 125I labeled MCP-1, 2 hours at 30° C.; read-out: Mean Ligand Binding IC50 (inhibition of MCP-1 binding to CCR2)
Sequence (P41597 1-360 isoform P41597-2): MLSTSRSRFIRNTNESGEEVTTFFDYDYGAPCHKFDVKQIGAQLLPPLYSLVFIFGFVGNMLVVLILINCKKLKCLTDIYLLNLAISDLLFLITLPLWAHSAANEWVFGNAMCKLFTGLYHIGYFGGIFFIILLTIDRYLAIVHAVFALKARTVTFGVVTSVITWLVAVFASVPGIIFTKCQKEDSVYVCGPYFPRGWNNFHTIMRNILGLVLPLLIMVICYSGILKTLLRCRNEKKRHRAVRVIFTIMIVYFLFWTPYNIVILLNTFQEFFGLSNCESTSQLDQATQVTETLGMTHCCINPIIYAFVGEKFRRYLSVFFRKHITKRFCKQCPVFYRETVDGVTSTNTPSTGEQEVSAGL
This listing pairs compounds with measured pIC50.
Field pIC50 (float): negative decimal logarithm of the concentration in molar.

Which pIC50 reading was recorded for the compound C[N+](C)(Cc1ccc(NC(=O)c2cc3cc(Cl)ccc3[nH]2)cc1)C1CCOCC1 [Cpd 159] ? 6.72

What does the record list as pIC50 for C[N+](C)(Cc1ccc(NC(=O)c2cccc(-c3ccc(C(F)(F)F)cc3)c2)cc1)C1CCOCC1 [Cpd 85] ? 5.28

Query (compound): C[N+](C)(Cc1ccc(NC(=O)C2=Cc3cc(Br)ccc3CCC2)cc1)C1CCOCC1 [Cpd 143] ; field requested: pIC50 8.15

Next up:
Look up pIC50: C[N+](C)(Cc1ccc(NC(=O)C=Cc2cccc(Br)c2)cc1)C1CCOCC1 [Cpd 43] 6.47
